Tested on: aqueous solubility in 1x PBS
Assay: compound solubility in 1x PBS – biophysical, set 2, ADME assay (AID 624321)
Details: at 100 µM
The source made the active and inactive calls. The rule behind the calls is not given here.
Possible outcomes: active, inactive

- compound: "CN(C)C1=C(Cl)C(=O)N(c2ccc(Cl)c(Cl)c2)C1=O"
  group: "inactive"
- compound: "CCOc1ccc(NC(=S)N2CCC(C(O)(c3ccccc3)c3ccccc3)CC2)cc1"
  group: "inactive"
- compound: "CN(C)c1oc(-c2ccc(OCc3ccc(Cl)cc3)cc2)nc1C#N"
  group: "inactive"
- compound: "O=C(COc1ccccc1Br)NCCc1nc2ccccc2[nH]1"
  group: "active"
- compound: "CN1CSC(=S)N(C)C1"
  group: "active"
- compound: "O=S1(=O)Nc2c(ccc3cccnc23)-c2ccccc21"
  group: "active"
- compound: "CCN1CCN(c2nc3ccccc3nc2C(C#N)C(=O)OC2CCCCC2)CC1 (stereo unspecified)"
  group: "active"
- compound: "Cc1ccccc1N1CCN(c2ncnc3c2cnn3Cc2ccc(Cl)cc2)CC1"
  group: "inactive"
- compound: "CCCC(=O)Nc1cccc(NC(=O)c2ccccc2Br)c1"
  group: "active"
- compound: "O=c1[nH]c2c(s1)C(c1cccnc1)C1C3CCC(C3)C1S2 (stereo unspecified)"
  group: "active"
- compound: "CC(C)(C)OC(=O)NCCc1nnc(S(=O)(=O)Cc2ccc(Cl)cc2Cl)o1"
  group: "inactive"

* * *

Test system: aqueous solubility in 1x PBS
Experiment: compound solubility in 1x PBS – biophysical, set 2, ADME assay (AID 624321)
Conditions: at 100 µM; active compounds read high
Activity calls are given as the source filed them. No rule for the calls is given here.
Quick reference: solubility of the listed items.
assay_metric: solubility

- compound: "COc1ccc(S(=O)(=O)N2CCN(S(=O)(=O)c3ccc4c(c3)OCCO4)CC2)cc1"
  assay_metric: "solubility"
  endpoint_result: "0.26 µg/mL (inactive)"
- compound: "CCCN1CNc2c(c(=O)[nH]c(=S)n2CCc2ccc(OC)c(OC)c2)C1"
  assay_metric: "solubility"
  endpoint_result: "> 39 µg/mL"
- compound: "Cc1ccc(S(=O)(=O)NCc2ccc(C(=O)NCCN(Cc3ccccc3)C(C)C)cc2)cc1"
  assay_metric: "solubility"
  endpoint_result: "18.6 µg/mL"
- compound: "Brc1ccc2c(c1)CN1CCCC1=N2"
  assay_metric: "solubility"
  endpoint_result: "> 25 µg/mL"
- compound: "COc1cc(NC(=O)c2cc(C3CC3)on2)c(OC)cc1Cl"
  assay_metric: "solubility"
  endpoint_result: "< 0.01 µg/mL (inactive)"
- compound: "COc1ccc(C2c3c(ncn(CCN4CCOCC4)c3=N)Oc3ccc4ccccc4c32)cc1OC (stereo unspecified)"
  assay_metric: "solubility"
  endpoint_result: "35.4 µg/mL"
- compound: "O=c1[nH]c(SCc2ccc(Cl)cc2)nc2c1CCC2"
  assay_metric: "solubility"
  endpoint_result: "0.62 µg/mL (inactive)"
- compound: "CCOc1ccc(-c2nc(-c3ccncc3)no2)cc1OCC"
  assay_metric: "solubility"
  endpoint_result: "0.77 µg/mL (inactive)"
- compound: "COc1ccc(N(C(=O)CCl)C(C(=O)NCCc2ccccc2)c2cccs2)cc1Cl (stereo unspecified)"
  assay_metric: "solubility"
  endpoint_result: "0.51 µg/mL (inactive)"
- compound: "C/C=C/Cn1c(SCCCc2ccccc2)nc2c1c(=O)[nH]c(=O)n2C"
  assay_metric: "solubility"
  endpoint_result: "0.19 µg/mL (inactive)"
- compound: "COC(=O)c1ccccc1NC(=O)c1ccc(F)cc1"
  assay_metric: "solubility"
  endpoint_result: "0.94 µg/mL (inactive)"

* * *

System: aqueous solubility in 1x PBS
Experiment: compound solubility in 1x PBS – biophysical, set 2, ADME assay (AID 624321)
Conditions: at 100 µM
Activity calls are given as the source filed them. How the calls were made is not given here.
Possible outcomes: active, inactive

- compound: "O=C1CCCC2=C1C1(CCCC1)N=C(Nc1nc3ccccc3o1)N2"
  group: "inactive"
- compound: "Cc1nc(SCc2nc3ccccc3[nH]2)c2oc3ccccc3c2n1"
  group: "inactive"
- compound: "COc1ccc(Sc2ccc(NC(=O)c3ccccc3Cl)cc2C#N)cc1"
  group: "inactive"
- compound: "O=C(CSc1cccc2cccnc12)N1CCCC1"
  group: "active"
- compound: "CCc1oc2ccccc2c1C(=O)c1cc(Br)c(O)c(Br)c1"
  group: "active"
- compound: "Cc1ccc(N2CCN(S(=O)(=O)N3CCCCC3)CC2)c(C)c1"
  group: "inactive"
- compound: "CC(C)C(=O)NC(c1ccco1)c1ccc2cccnc2c1O (stereo unspecified)"
  group: "inactive"
- compound: "Cc1cc(C(=O)CN2C(=O)CCC2=O)c(C)n1Cc1ccccc1"
  group: "active"
- compound: "CCCN(CCC)CCNC(=O)C1CCN(Cc2nc(-c3ccc(Cl)cc3)oc2C)CC1"
  group: "active"
- compound: "Cc1ccc(C)c(NS(=O)(=O)c2cc(C(=O)Nc3ccccc3-c3ccccc3)ccc2Cl)c1"
  group: "inactive"
- compound: "Cc1ccc(NC(=O)CCC(=O)N/N=C/c2ccc([N+](=O)[O-])o2)cc1C"
  group: "inactive"

* * *

Tested on: aqueous solubility in 1x PBS
Experiment: compound solubility in 1x PBS – biophysical, set 2, ADME assay (AID 624321)
Conditions: at 100 µM; active compounds read high
The source made the active and inactive calls. The rule behind the calls is not given here.
Quick reference: solubility of the listed items.

- molecule: "Cn1cnc([N+](=O)[O-])c1Sc1ncnc2nc[nH]c12"
  solubility: "> 27 µg/mL"
- molecule: "O=[N+]([O-])c1ccc(CN2CCOCCOCCN(Cc3ccc([N+](=O)[O-])cc3)CCOCC2)cc1"
  solubility: "21.7 µg/mL"
- molecule: "CCCn1ncc(CN2CCCC(C(=O)c3cccc(OC(C)C)c3)C2)c1C (stereo unspecified)"
  solubility: "29.6 µg/mL"
- molecule: "CCCc1nc2c(=O)n(C)c(=O)nc-2n(C)n1"
  solubility: "> 23 µg/mL"
- molecule: "Cc1ccc(S(=O)(=O)n2c(N)nc3ccccc32)cc1"
  solubility: "1.8 µg/mL (inactive)"
- molecule: "N#C/C(=C\\c1ccc([N+](=O)[O-])o1)c1nc2ccccc2[nH]1"
  solubility: "0.17 µg/mL (inactive)"
- molecule: "Cc1ccc(C)c(OCCn2cc(C(=O)O)c3ccccc32)c1"
  solubility: "25.1 µg/mL"
- molecule: "COc1ccccc1N(/N=C1\\Sc2ccccc2C1=O)C(C)=O"
  solubility: "3.7 µg/mL (inactive)"
- molecule: "COc1ccc(S(=O)(=O)n2nc(OC(=O)c3ccccc3)cc2N)cc1"
  solubility: "1.1 µg/mL (inactive)"
- molecule: "O=C(c1ccccn1)N(Cc1cccs1)C1(C(=O)NC2CCCCC2)CCCCC1"
  solubility: "7.3 µg/mL (inactive)"
- molecule: "COc1ccc(C2CC(c3ccccc3)=NN2c2ccc(S(N)(=O)=O)cc2)cc1 (stereo unspecified)"
  solubility: "0.02 µg/mL (inactive)"

* * *

System: aqueous solubility in 1x PBS
Test: compound solubility in 1x PBS – biophysical, set 2, ADME assay (AID 624321)
Conditions: at 100 µM
The source made the active and inactive calls. No rule for the calls is given here.
Possible outcomes: Y for active, N for inactive

- molecule: "CSc1nc(-c2ccc(C)cc2)nc(C(Cl)Cl)n1"
  target_of_assay: "aqueous solubility in 1x PBS"
  group: "N"
- molecule: "COc1ccc(OC)c(-c2nnc3n2N=C(c2ccc(OC)c(OC)c2)CS3)c1"
  target_of_assay: "aqueous solubility in 1x PBS"
  group: "Y"
- molecule: "O=C(O)c1cccnc1SCCc1ccccc1"
  target_of_assay: "aqueous solubility in 1x PBS"
  group: "Y"
- molecule: "O=C(O)c1ccc(N2C(=O)/C(=C/c3ccc(-c4ccc([N+](=O)[O-])cc4)o3)C=C2c2ccccc2)cc1"
  target_of_assay: "aqueous solubility in 1x PBS"
  group: "N"
- molecule: "Cc1cc(C)n(-c2nc(NCCCO)c3c4c(sc3n2)CCCC4)n1"
  target_of_assay: "aqueous solubility in 1x PBS"
  group: "Y"
- molecule: "O=S(=O)(NC1CCCCC1N1CCOCC1)c1ccc(Cl)cc1 (stereo unspecified)"
  target_of_assay: "aqueous solubility in 1x PBS"
  group: "Y"
- molecule: "COc1cccc(-c2nc(-c3ccc(NC(=O)Cc4ccccc4OC)cc3)no2)c1"
  target_of_assay: "aqueous solubility in 1x PBS"
  group: "N"
- molecule: "O=C1NCCCc2c1oc1ccc(O)cc21"
  target_of_assay: "aqueous solubility in 1x PBS"
  group: "Y"
- molecule: "O=C(COC(=O)C12CC3CC(CC(C3)C1)C2)NCc1ccco1"
  target_of_assay: "aqueous solubility in 1x PBS"
  group: "N"
- molecule: "NC(=O)C1CCN(c2nc(-c3ccc(Br)cc3)cs2)CC1"
  target_of_assay: "aqueous solubility in 1x PBS"
  group: "N"
- molecule: "Cc1cc2c(s1)c1cnn(Cc3ccccc3F)c(=O)c1n2C"
  target_of_assay: "aqueous solubility in 1x PBS"
  group: "N"
